- System: LXRa homodimer (NR concentration 270 nM)
- assay remarks: PBM binding z-score (relative to random genomic background probes); higher = stronger binding; sequences stand for … in GC…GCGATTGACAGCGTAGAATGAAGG
Think of 0.2 as a floor: if PBM binding z-score stands on it or above, it is true; beneath it, false.

>>> df
                                 chain  discrete_label
 0  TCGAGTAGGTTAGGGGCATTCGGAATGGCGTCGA           false
 1  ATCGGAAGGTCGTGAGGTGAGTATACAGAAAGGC            true
 2  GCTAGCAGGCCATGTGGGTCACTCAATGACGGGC           false
 3  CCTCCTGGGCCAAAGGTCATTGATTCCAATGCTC            true
 4  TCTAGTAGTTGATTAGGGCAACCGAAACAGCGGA           false
 5  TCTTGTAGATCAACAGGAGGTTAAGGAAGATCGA           false
 6  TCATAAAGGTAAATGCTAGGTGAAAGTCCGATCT           false
 7  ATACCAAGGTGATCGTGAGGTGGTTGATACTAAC           false
 8  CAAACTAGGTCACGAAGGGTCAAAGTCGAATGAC            true
 9  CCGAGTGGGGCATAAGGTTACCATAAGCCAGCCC           false
10  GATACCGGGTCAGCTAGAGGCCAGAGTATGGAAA           false
11  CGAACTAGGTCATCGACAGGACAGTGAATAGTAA            true
12  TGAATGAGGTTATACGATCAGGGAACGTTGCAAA           false
13  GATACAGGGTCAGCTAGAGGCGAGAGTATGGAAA           false
14  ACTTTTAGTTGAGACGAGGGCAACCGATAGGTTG           false
15  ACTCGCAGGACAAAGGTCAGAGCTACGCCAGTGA            true
16  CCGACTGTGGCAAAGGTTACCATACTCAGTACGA            true
17  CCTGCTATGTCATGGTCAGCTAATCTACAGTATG           false
18  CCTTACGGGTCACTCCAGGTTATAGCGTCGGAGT            true
19  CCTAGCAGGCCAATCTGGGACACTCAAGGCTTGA           false
20  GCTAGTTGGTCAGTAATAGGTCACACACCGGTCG            true
21  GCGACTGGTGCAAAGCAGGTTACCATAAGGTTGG           false
22  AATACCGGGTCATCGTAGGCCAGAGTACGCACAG            true
23  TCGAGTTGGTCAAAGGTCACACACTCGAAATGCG            true
24  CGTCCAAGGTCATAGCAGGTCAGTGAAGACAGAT            true
25  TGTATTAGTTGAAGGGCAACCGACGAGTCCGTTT            true
26  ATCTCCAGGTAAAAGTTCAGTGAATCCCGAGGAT            true
27  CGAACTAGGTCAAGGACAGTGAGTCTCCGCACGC           false
28  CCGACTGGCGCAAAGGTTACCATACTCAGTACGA           false
29  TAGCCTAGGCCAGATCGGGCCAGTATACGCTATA           false
30  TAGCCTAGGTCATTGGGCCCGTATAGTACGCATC            true
31  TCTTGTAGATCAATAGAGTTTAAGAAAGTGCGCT           false
32  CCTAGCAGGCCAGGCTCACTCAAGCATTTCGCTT           false
33  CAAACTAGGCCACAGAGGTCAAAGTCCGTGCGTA            true
34  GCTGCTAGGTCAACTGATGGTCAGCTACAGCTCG            true
35  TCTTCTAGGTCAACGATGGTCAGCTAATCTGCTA            true
36  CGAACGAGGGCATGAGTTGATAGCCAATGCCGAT           false
37  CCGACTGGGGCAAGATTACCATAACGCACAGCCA           false
38  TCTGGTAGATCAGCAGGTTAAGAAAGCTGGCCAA           false
39  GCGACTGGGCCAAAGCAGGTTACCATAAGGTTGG           false
40  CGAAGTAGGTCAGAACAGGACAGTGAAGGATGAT           false
41  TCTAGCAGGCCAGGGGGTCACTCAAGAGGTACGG            true
42  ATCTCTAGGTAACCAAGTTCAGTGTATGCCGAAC            true
43  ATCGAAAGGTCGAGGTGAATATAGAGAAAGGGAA            true
44  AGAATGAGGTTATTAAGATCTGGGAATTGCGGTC            true
45  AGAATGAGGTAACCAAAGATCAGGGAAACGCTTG           false
46  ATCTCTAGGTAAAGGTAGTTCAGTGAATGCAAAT            true
47  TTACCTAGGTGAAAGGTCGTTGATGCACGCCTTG            true
48  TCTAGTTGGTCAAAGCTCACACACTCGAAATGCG            true
49  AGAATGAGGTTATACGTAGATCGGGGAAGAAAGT           false
